# Assay Notes: Stability in human microsomes assessed as compound remaining after 60 mins
# Type: ADME, Microsome
# Condition Label: read-out: Stability
Reported Metric: remaining at 1 h
Write the numeric value and follow it with the unit.

Asked: Given the entry C[C@@H](O[C@H]1CN2C(=O)C(O)C[C@H]2[C@@H]1c1ccc(F)cc1)c1cc(C(F)(F)F)cc(C(F)(F)F)c1 (stereo in doubt; 2b) , report its measured remaining at 1 h.
Given back: 54%

Next:
Asked: Given the entry C[C@@H](O[C@H]1CN2C(=O)CC(N)[C@H]2[C@@H]1c1ccc(F)cc1)c1cc(C(F)(F)F)cc(C(F)(F)F)c1 (stereo in doubt; 15a) , report its measured remaining at 1 h.
Given back: 66%

----------
# Assay Notes: Half life in rhesus monkey
# Format: ADME, organism-based, Macaca mulatta
# Condition Label: in vivo
Reported Metric: half-life (h)
Give the number; h is assumed, so skip it.

Asked: Given the entry C[C@@H](O[C@H]1CN2C(=O)C(O)C[C@H]2[C@@H]1c1ccc(F)cc1)c1cc(C(F)(F)F)cc(C(F)(F)F)c1 (stereo in doubt; 2b) , report its measured half-life.
Given back: 80.4

----------
Listed here are compounds together with their documented inhibition of substance P-induced inositol phosphate generation.
# Measured Target: Substance-P receptor (Homo sapiens, UniProt P25103)
# Sequence (P25103 whole entry): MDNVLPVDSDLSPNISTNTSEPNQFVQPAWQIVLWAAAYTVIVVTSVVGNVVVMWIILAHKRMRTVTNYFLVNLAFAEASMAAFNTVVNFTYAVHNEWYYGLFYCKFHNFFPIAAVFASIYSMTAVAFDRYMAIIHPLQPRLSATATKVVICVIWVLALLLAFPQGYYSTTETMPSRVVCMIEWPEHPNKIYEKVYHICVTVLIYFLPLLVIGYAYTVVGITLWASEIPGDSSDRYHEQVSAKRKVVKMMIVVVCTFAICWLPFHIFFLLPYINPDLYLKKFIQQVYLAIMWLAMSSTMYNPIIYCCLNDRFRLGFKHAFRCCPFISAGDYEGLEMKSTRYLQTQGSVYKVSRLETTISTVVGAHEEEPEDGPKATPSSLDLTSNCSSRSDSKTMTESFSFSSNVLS
# Assay Notes: Antagonist activity at human NK1 receptor expressed in CHO cells assessed as inhibition of substance P-induced inositol phosphate generation at 100 nM
# Type: functional, cell-based
Give the number; % is assumed, so skip it.

Asked: # query: inhibition of substance P-induced inositol phosphate generation | item C[C@@H](O[C@H]1CN2C(=O)C(n3cnnc3)C[C@H]2[C@@H]1c1ccc(F)cc1)c1cc(C(F)(F)F)cc(C(F)(F)F)c1 (single isomer, unassigned) | system: Substance-P receptor (Homo sapiens, UniProt P25103)
Given back: 74

Next:
Asked: # query: inhibition of substance P-induced inositol phosphate generation | item C[C@@H](O[C@H]1CN2C(=O)CC(C)(O)[C@H]2[C@@H]1c1ccc(F)cc1)c1cc(C(F)(F)F)cc(C(F)(F)F)c1 (stereo in doubt; 20a) | system: Substance-P receptor (Homo sapiens, UniProt P25103)
Given back: 28

Asked: Thanks! And C[C@@H](O[C@H]1CN2C(=O)C(C)(O)C[C@H]2[C@@H]1c1ccc(F)cc1)c1cc(C(F)(F)F)cc(C(F)(F)F)c1 (stereo in doubt; 5b) ?
Given back: 45

Asked: Thanks! And CC(=O)N1C[C@H](O[C@H](C)c2cc(C(F)(F)F)cc(C(F)(F)F)c2)[C@@H](c2ccc(F)cc2)[C@@H]1CO ?
Given back: 91

Asked: Thanks! And C[C@@H](O[C@H]1CN2C(=O)CC(O)[C@H]2[C@@H]1c1ccc(F)cc1)c1cc(C(F)(F)F)cc(C(F)(F)F)c1 (single isomer, unassigned; 18b) ?
Given back: 79

----------
# Measured Target: Substance-P receptor (Homo sapiens, UniProt P25103)
# Assay Notes: Displacement of [125I]substance P from human NK1 receptor expressed in CHO cells
# Assay type: cell-based
Reported Metric: pIC50
pIC50 (log units): -log10 of the concentration in mol/L.

Asked: Given the entry C[C@@H](O[C@H]1CN2C(=O)C(O)C[C@H]2[C@@H]1c1ccc(F)cc1)c1cc(C(F)(F)F)cc(C(F)(F)F)c1 (single isomer, unassigned) , report its measured pIC50.
Given back: 9.85

Next:
Asked: Given the entry C[C@@H](O[C@H]1CN2C(=O)C(C)(O)C[C@H]2[C@@H]1c1ccc(F)cc1)c1cc(C(F)(F)F)cc(C(F)(F)F)c1 (stereo in doubt; 5b) , report its measured pIC50.
Given back: 10.40

Asked: Thanks! And C[C@@H](O[C@H]1CN2C(=O)CC(NCc3ccn[nH]3)[C@H]2[C@@H]1c1ccc(F)cc1)c1cc(C(F)(F)F)cc(C(F)(F)F)c1 (stereo partly specified) ?
Given back: 9.89

Asked: Thanks! And C[C@@H](O[C@H]1CN2C(=O)CC(C)(N)[C@H]2[C@@H]1c1ccc(F)cc1)c1cc(C(F)(F)F)cc(C(F)(F)F)c1 (stereo partly specified) ?
Given back: 10.10

Asked: Thanks! And C[C@@H](O[C@H]1CN2C(=O)C(n3cnnc3)C[C@H]2[C@@H]1c1ccc(F)cc1)c1cc(C(F)(F)F)cc(C(F)(F)F)c1 (single isomer, unassigned) ?
Given back: 10.30

Asked: Thanks! And C[C@@H](O[C@H]1CN2C(=O)C(O)C[C@H]2[C@@H]1c1ccc(F)cc1)c1cc(C(F)(F)F)cc(C(F)(F)F)c1 (stereo in doubt; 2b) ?
Given back: 10.10

----------
# Assay Notes: Plasma clearance in rhesus monkey
# Type: ADME, organism-based, Macaca mulatta
Reported Metric: clearance (L/h/kg)
Give the number; L/h/kg is assumed, so skip it.

Asked: Given the entry C[C@@H](O[C@H]1CN2C(=O)C(O)C[C@H]2[C@@H]1c1ccc(F)cc1)c1cc(C(F)(F)F)cc(C(F)(F)F)c1 (stereo in doubt; 2b) , report its measured clearance.
Given back: 0.06

----------
# Assay Notes: Stability in rat microsomes assessed as compound remaining after 60 mins
# Type: ADME, Microsome
# Condition Label: read-out: Stability
Reported Metric: remaining at 1 h (%)
Give the number; % is assumed, so skip it.

Asked: Given the entry C[C@@H](O[C@H]1CN2C(=O)C(O)C[C@H]2[C@@H]1c1ccc(F)cc1)c1cc(C(F)(F)F)cc(C(F)(F)F)c1 (stereo in doubt; 2b) , report its measured remaining at 1 h.
Given back: 60

Asked: Thanks! And C[C@@H](O[C@H]1CN2C(=O)CC(N)[C@H]2[C@@H]1c1ccc(F)cc1)c1cc(C(F)(F)F)cc(C(F)(F)F)c1 (stereo in doubt; 15a) ?
Given back: 85

----------
Listed here are compounds together with their documented inhibition of substance P-induced inositol phosphate generation.
# Measured Target: Substance-P receptor (Homo sapiens)
# Assay Notes: Antagonist activity at human NK1 receptor expressed in CHO cells assessed as inhibition of substance P-induced inositol phosphate generation at 100 nM
# Type: functional, cell-based
Give the number; % is assumed, so skip it.

Example entries begin here.
Asked: Given the entry C[C@@H](O[C@H]1CN2C(=O)CC(C)(O)[C@H]2[C@@H]1c1ccc(F)cc1)c1cc(C(F)(F)F)cc(C(F)(F)F)c1 (stereo in doubt; 20b) , report its measured inhibition of substance P-induced inositol phosphate generation.
Given back: 57

Asked: Thanks! And C[C@@H](O[C@H]1CN2C(=O)C(N)C[C@H]2[C@@H]1c1ccc(F)cc1)c1cc(C(F)(F)F)cc(C(F)(F)F)c1 (stereo in doubt; 3a) ?
Given back: 92

Asked: Thanks! And C[C@@H](O[C@H]1CN2C(=O)CC(C)(N)[C@H]2[C@@H]1c1ccc(F)cc1)c1cc(C(F)(F)F)cc(C(F)(F)F)c1 (stereo partly specified) ?
Given back: 45

Asked: Thanks! And C[C@@H](O[C@H]1CN2C(=O)CC(NCc3ccn[nH]3)[C@H]2[C@@H]1c1ccc(F)cc1)c1cc(C(F)(F)F)cc(C(F)(F)F)c1 (stereo partly specified) ?
Given back: 68

Asked: Thanks! And C[C@@H](O[C@H]1CN2C(=O)C(O)C[C@H]2[C@@H]1c1ccc(F)cc1)c1cc(C(F)(F)F)cc(C(F)(F)F)c1 (single isomer, unassigned) ?
Given back: 90

Continue with the compound presented below.
Asked: Given the entry C[C@@H](O[C@H]1CN2C(=O)C(n3cnnc3)C[C@H]2[C@@H]1c1ccc(F)cc1)c1cc(C(F)(F)F)cc(C(F)(F)F)c1 (stereo in doubt; 21a) , report its measured inhibition of substance P-induced inositol phosphate generation.
Given back: 81

----------
# Assay Notes: Oral bioavailability in rat
# Type: ADME, organism-based
# Condition Label: in vivo
Reported Metric: bioavailability (%)
Give the number; % is assumed, so skip it.

Asked: Given the entry C[C@@H](O[C@H]1CN2C(=O)C(O)C[C@H]2[C@@H]1c1ccc(F)cc1)c1cc(C(F)(F)F)cc(C(F)(F)F)c1 (stereo in doubt; 2b) , report its measured bioavailability.
Given back: 93

Next:
Asked: Given the entry C[C@@H](O[C@H]1CN2C(=O)CC(N)[C@H]2[C@@H]1c1ccc(F)cc1)c1cc(C(F)(F)F)cc(C(F)(F)F)c1 (stereo in doubt; 15a) , report its measured bioavailability.
Given back: 78

----------
# Measured Target: Substance-P receptor (Homo sapiens)
# Assay Notes: Displacement of [125I]substance P from human NK1 receptor expressed in CHO cells
# Assay type: cell-based
Listed here are compounds together with their documented pIC50.
pIC50 (log units): -log10 of the concentration in mol/L.

Example entries begin here.
Asked: Given the entry CC(=O)N1C[C@H](O[C@H](C)c2cc(C(F)(F)F)cc(C(F)(F)F)c2)[C@@H](c2ccc(F)cc2)[C@@H]1CO , report its measured pIC50.
Given back: 9.52

Asked: Thanks! And C[C@@H](O[C@H]1CN2C(=O)C(N)C[C@H]2[C@@H]1c1ccc(F)cc1)c1cc(C(F)(F)F)cc(C(F)(F)F)c1 (stereo in doubt; 3a) ?
Given back: 9.57

Asked: Thanks! And C[C@@H](O[C@H]1CN2C(=O)C(NCc3nn[nH]c3CN(C)C)C[C@H]2[C@@H]1c1ccc(F)cc1)c1cc(C(F)(F)F)cc(C(F)(F)F)c1 (stereo partly drawn) ?
Given back: 9.89

Asked: Thanks! And C[C@@H](O[C@H]1CN2C(=O)CC(O)[C@H]2[C@@H]1c1ccc(F)cc1)c1cc(C(F)(F)F)cc(C(F)(F)F)c1 (single isomer, unassigned; 18a) ?
Given back: 10.10

Asked: Thanks! And C[C@@H](O[C@H]1CN2C(=O)C(N)C[C@H]2[C@@H]1c1ccc(F)cc1)c1cc(C(F)(F)F)cc(C(F)(F)F)c1 (stereo in doubt; 3b) ?
Given back: 10.22

Next:
Asked: Given the entry C[C@@H](O[C@H]1CN2C(=O)CC(n3cnnc3)[C@H]2[C@@H]1c1ccc(F)cc1)c1cc(C(F)(F)F)cc(C(F)(F)F)c1 (stereo partly drawn) , report its measured pIC50.
Given back: 10.15

Asked: Thanks! And C[C@@H](O[C@H]1CN2C(=O)CC(C)(O)[C@H]2[C@@H]1c1ccc(F)cc1)c1cc(C(F)(F)F)cc(C(F)(F)F)c1 (stereo in doubt; 20b) ?
Given back: 10.22

Asked: Thanks! And C[C@@H](O[C@H]1CN2C(=O)CC(C)(O)[C@H]2[C@@H]1c1ccc(F)cc1)c1cc(C(F)(F)F)cc(C(F)(F)F)c1 (stereo in doubt; 20a) ?
Given back: 10.15

Asked: Thanks! And C[C@@H](O[C@H]1CN2C(=O)C(n3cnnc3)C[C@H]2[C@@H]1c1ccc(F)cc1)c1cc(C(F)(F)F)cc(C(F)(F)F)c1 (stereo in doubt; 21a) ?
Given back: 10.15

Asked: Thanks! And C[C@@H](O[C@H]1CN2C(=O)C(C)(O)C[C@H]2[C@@H]1c1ccc(F)cc1)c1cc(C(F)(F)F)cc(C(F)(F)F)c1 (single isomer, unassigned) ?
Given back: 10.05

Asked: Thanks! And C[C@@H](O[C@H]1CN2C(=O)C(NCc3ccn[nH]3)C[C@H]2[C@@H]1c1ccc(F)cc1)c1cc(C(F)(F)F)cc(C(F)(F)F)c1 (stereo partly drawn) ?
Given back: 10.22

Asked: Thanks! And C[C@@H](O[C@H]1CN2C(=O)CC(N)[C@H]2[C@@H]1c1ccc(F)cc1)c1cc(C(F)(F)F)cc(C(F)(F)F)c1 (stereo in doubt; 15a) ?
Given back: 10.05

Asked: Thanks! And C[C@@H](O[C@H]1CN2C(=O)CC(O)[C@H]2[C@@H]1c1ccc(F)cc1)c1cc(C(F)(F)F)cc(C(F)(F)F)c1 (single isomer, unassigned; 18b) ?
Given back: 10.15
